# EXPERIMENTAL SYSTEM: T1, HsLARP6(70-300) R231A (Homo sapiens, UniProt Q9BRS8 70-300, R231A)
# T1 sequence: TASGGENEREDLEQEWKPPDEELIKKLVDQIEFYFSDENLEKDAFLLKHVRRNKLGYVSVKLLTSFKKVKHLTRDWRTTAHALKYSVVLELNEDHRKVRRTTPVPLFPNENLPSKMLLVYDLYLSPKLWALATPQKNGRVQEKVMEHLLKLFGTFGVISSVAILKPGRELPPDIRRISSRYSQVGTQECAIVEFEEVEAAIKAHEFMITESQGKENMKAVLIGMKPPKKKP
# METHOD DESCRIPTION: ITC; ITC: 20 mM Tris pH 7.25, 100 mM KCl, 5 mM MgCl2, 1 mM DTT, 298 K; protein titrated into RNA
# CONDITION SUMMARY: protein: recombinant; tags: N-terminal His6 (TEV-cleavable); stem-loop with internal bulge
EXPERIMENTAL READOUT: pKd
Give bare numbers, as −log10 of the molar value.

Quick one: pKd for CCACAAAGAGUCUACAUGUCUAGGGUCUAGACAUGUUCAGCUUUGUGG (structured_RNA) [48 nt RNA (collagen alpha1(I) 5' UTR SL)] ? 7.70
